Origin of measurements: ChEMBL document CHEMBL3877253

- Test: Cytotoxicity against human HepG2 cells assessed as reduction in cell viability after 72 hrs by MTT assay
- Type: toxicity, cell-based
Measure: CC50 at 72 h

Some compounds with known CC50 at 72 h results, for comparison:
Mol: O=C1C(O)=C([C@H]2CC[C@H](c3ccc(Cl)cc3)CC2)C(=O)c2ccccc21
CC50 at 72 h: > 15.6 µM
--
Mol: Clc1ccc(Sc2nc3ccccc3nc2C(Cl)(Cl)Cl)cc1
CC50 at 72 h: 38.6 µM
--
Mol: Clc1ccc(Nc2cc(C(Cl)(Cl)Cl)nc3ccccc23)c(Cl)c1
CC50 at 72 h: 11.7 µM
--
Mol: FC(F)(F)c1cccc(Nc2cc(C(Cl)(Cl)Cl)nc3ccccc23)c1
CC50 at 72 h: 6.5 µM

Now consider a different compound.
# CC50 at 72 h lookup, item `Clc1nc(C(Cl)(Cl)Cl)nc2ccccc12` > 125 µM
